Known MIC of a selection of compounds
System: Staphylococcus aureus
Assay Text: Antibacterial activity against Staphylococcus aureus 29213 assessed as inhibition of bacterial growth measured after 24 hrs
Assay type: functional
Report as a plain number; the unit µM is understood.

- Compound: "CC(=O)NC[C@H]1CN(c2ccc(-c3ccc(COC(=O)c4ccc(B(O)O)cc4)cc3)c(F)c2)C(=O)O1"
  Value Units: "µM"
  MIC: 0.78
- Compound: "CC(=O)NC[C@H]1CN(c2ccc(-c3cccc(CO)c3)c(F)c2)C(=O)O1"
  Value Units: "µM"
  MIC: 3.13
- Compound: "CC(=O)NC[C@H]1CN(c2ccc(-c3ccc(CNC(=O)c4ccc(B(O)O)cc4)cc3)c(F)c2)C(=O)O1"
  Value Units: "µM"
  MIC: 0.78
- Compound: "CC(=O)NC[C@H]1CN(c2ccc(N3CCOCC3)c(F)c2)C(=O)O1 [LINEZOLID]"
  Value Units: "µM"
  MIC: 6.25
- Compound: "CC(=O)NC[C@H]1CN(c2ccc(-c3ccc(CO)cc3)c(F)c2)C(=O)O1"
  Value Units: "µM"
  MIC: 1.56

Staphylococcus aureus / MIC / `CC(=O)NC[C@H]1CN(c2ccc(-c3ccc(CNC(=O)c4cccc(B(O)O)c4)cc3)c(F)c2)C(=O)O1` : value?
0.78

Reported MIC for Staphylococcus aureus, given `CC(=O)NC[C@H]1CN(c2ccc(-c3ccc(O)cc3)c(F)c2)C(=O)O1` ?
0.78

Give the reported MIC for `CC(=O)NC[C@H]1CN(c2ccc(-c3ccc(COC(=O)c4cccc(B(O)O)c4)cc3)c(F)c2)C(=O)O1` (system: Staphylococcus aureus).
1.56

---

System: Enterococcus faecalis
Assay Text: Antibacterial activity against vancomycin resistant Enterococcus faecalis 51575 assessed as inhibition of bacterial growth measured after 24 hrs
Type: functional
Measured Quantity: MIC (µM)
Only the number, expressed in µM, is required.

Here's what some known entries look like.
- Compound: "CC(=O)NCC1CN(c2ccc(-c3ccc(COC(=O)c4ccc(B(O)O)cc4)cc3)c(F)c2)C(=O)O1 (centres undefined)"
  Observed: 1.56
- Compound: "CC(=O)NC[C@H]1CN(c2ccc(-c3ccc(CNC(=O)c4cccc(B(O)O)c4)cc3)c(F)c2)C(=O)O1"
  Observed: 0.39
- Compound: "CC(=O)NCC1CN(c2ccc(-c3ccc(COC(=O)c4ccccc4)cc3)c(F)c2)C(=O)O1 (centres undefined)"
  Observed: 3.13

Which MIC value is on record for `CC(=O)NC[C@H]1CN(c2ccc(-c3ccc(COC(=O)c4ccc(B(O)O)cc4)cc3)c(F)c2)C(=O)O1` ?
0.39

---

Test system: Enterococcus faecalis
Assay Text: Antibacterial activity against Enterococcus faecalis 29212 assessed as inhibition of bacterial growth measured after 24 hrs
Experimental Conditions: Enterococcus faecalis, 29212, 24 h
Reported MIC values for the following molecules.
Write the answer as a number in µM, unit excluded.

As a guide, the following entries are already answered.
- Molecule: "CC(=O)NCC1CN(c2ccc(-c3ccc(COC(=O)c4ccc(B(O)O)c(Cl)c4)cc3)c(F)c2)C(=O)O1 (centres undefined)"
  MIC / µM: 1.56
- Molecule: "CC(=O)NC[C@H]1CN(c2ccc(-c3ccc(COC(=O)c4ccc(B(O)O)cc4)cc3)c(F)c2)C(=O)O1"
  MIC / µM: 0.78
- Molecule: "CC(=O)NC[C@H]1CN(c2ccc(-c3cccc(COC(=O)c4ccc(B(O)O)cc4)c3)c(F)c2)C(=O)O1"
  MIC / µM: 0.78

# ---- query molecule ----
What measured MIC goes with `CC(=O)NC[C@H]1CN(c2ccc(-c3ccc(CO)cc3)c(F)c2)C(=O)O1` ?
0.78

---

Test system: Enterococcus faecalis
Assay Text: Antibacterial activity against Enterococcus faecalis 29212 assessed as inhibition of bacterial growth measured after 24 hrs
Experimental Conditions: Enterococcus faecalis, 29212, 24 h
Measured Quantity: MIC (µM)
Provide only the numeric value, understood in µM.

- Smiles Representation: "CC(=O)NC[C@H]1CN(c2ccc(-c3ccc(O)cc3)c(F)c2)C(=O)O1"
  Measured Quantity: "MIC"
  Observed: 0.39
- Smiles Representation: "CC(=O)NC[C@H]1CN(c2ccc(-c3cccc(CO)c3)c(F)c2)C(=O)O1"
  Measured Quantity: "MIC"
  Observed: 1.56

Look up MIC with Enterococcus faecalis for this compound: `CC(=O)NC[C@H]1CN(c2ccc(-c3ccc(CNC(=O)c4cccc(B(O)O)c4)cc3)c(F)c2)C(=O)O1`
0.39

Give the reported MIC for `CC(=O)NC[C@H]1CN(c2ccc(-c3ccc(CN)cc3)c(F)c2)C(=O)O1` (system: Enterococcus faecalis).
1.56

---

Tested on: Staphylococcus aureus
Assay Text: Antibacterial activity against Staphylococcus aureus 29213 assessed as inhibition of bacterial growth measured after 24 hrs
Format: functional
Measured Quantity: MIC (µM)
Provide the reading as a plain figure in µM.

// solved cases for MIC follow
- Compound: "CC(=O)NCC1CN(c2ccc(-c3ccc(COC(=O)c4ccc(B(O)O)c(F)c4)cc3)c(F)c2)C(=O)O1 (stereo not given)"
  Value Units: "µM"
  MIC: 1.56
- Compound: "CC(=O)NC[C@H]1CN(c2ccc(-c3ccc(CN)cc3)c(F)c2)C(=O)O1"
  Value Units: "µM"
  MIC: 3.13
- Compound: "CC(=O)NCC1CN(c2ccc(-c3ccc(COC(=O)c4ccc(B(O)O)cc4F)cc3)c(F)c2)C(=O)O1 (stereo not given)"
  Value Units: "µM"
  MIC: 1.56
- Compound: "CC(=O)NCC1CN(c2ccc(-c3ccc(COC(=O)c4ccc(B(O)O)cc4Cl)cc3)c(F)c2)C(=O)O1 (stereo not given)"
  Value Units: "µM"
  MIC: 3.13

Now let's try a different one.
Which MIC value belongs to CC(=O)NCC1CN(c2ccc(-c3ccc(COC(=O)c4ccc(B(O)O)c(Cl)c4)cc3)c(F)c2)C(=O)O1 (stereo not given) ?
1.56

---

System: Enterococcus faecalis
Assay Text: Antibacterial activity against vancomycin resistant Enterococcus faecalis 51575 assessed as inhibition of bacterial growth measured after 24 hrs
Assay type: functional
Please note: MIC exactly at 3 µM is condition not met. Only values below 3 µM get condition met.

Previously resolved entries follow.
- Molecule: "CC(=O)NCC1CN(c2ccc(-c3ccc(COC(=O)c4ccc(B(O)O)cc4F)cc3)c(F)c2)C(=O)O1 (stereo unspecified)"
  Study System: "Enterococcus faecalis"
  Group Label: "condition met"
- Molecule: "CC(=O)NCC1CN(c2ccc(-c3ccc(COC(=O)c4ccc(B(O)O)cc4Cl)cc3)c(F)c2)C(=O)O1 (stereo unspecified)"
  Study System: "Enterococcus faecalis"
  Group Label: "condition not met"
- Molecule: "CC(=O)NC[C@H]1CN(c2ccc(-c3ccc(CNC(=O)c4ccc(B(O)O)cc4)cc3)c(F)c2)C(=O)O1"
  Study System: "Enterococcus faecalis"
  Group Label: "condition met"
- Molecule: "CC(=O)NC[C@H]1CN(c2ccc(-c3ccc(CO)cc3)c(F)c2)C(=O)O1"
  Study System: "Enterococcus faecalis"
  Group Label: "condition met"
- Molecule: "CC(=O)NC[C@H]1CN(c2ccc(-c3cccc(CO)c3)c(F)c2)C(=O)O1"
  Study System: "Enterococcus faecalis"
  Group Label: "condition not met"
- Molecule: "CC(=O)NC[C@H]1CN(c2ccc(-c3ccc(COC(=O)c4cccc(B(O)O)c4)cc3)c(F)c2)C(=O)O1"
  Study System: "Enterococcus faecalis"
  Group Label: "condition met"
- Molecule: "CC(=O)NC[C@H]1CN(c2ccc(-c3cccc(COC(=O)c4ccc(B(O)O)cc4)c3)c(F)c2)C(=O)O1"
  Study System: "Enterococcus faecalis"
  Group Label: "condition met"
- Molecule: "CC(=O)NC[C@H]1CN(c2ccc(-c3ccc(OC(=O)c4ccc(B(O)O)cc4)cc3)c(F)c2)C(=O)O1"
  Study System: "Enterococcus faecalis"
  Group Label: "condition not met"

Consider `CC(=O)NC[C@H]1CN(c2ccc(N3CCOCC3)c(F)c2)C(=O)O1` . Does its MIC lie strictly below 3 µM?
condition not met

Item CC(=O)NCC1CN(c2ccc(-c3ccc(COC(=O)c4ccc(B(O)O)c(Cl)c4)cc3)c(F)c2)C(=O)O1 (stereo unspecified) : MIC beneath 3 µM, strictly?
condition met

---

Test system: Staphylococcus aureus
Assay Text: Antibacterial activity against Staphylococcus aureus 29213 assessed as inhibition of bacterial growth measured after 24 hrs
Assay type: functional
Below: a set of entries, each annotated with reported MIC.
// return numeric value only (unit: µM, not printed)

Worked cases, MIC given:
- Molecule: "CC(=O)NCC1CN(c2ccc(-c3ccc(COC(=O)c4ccc(B(O)O)cc4)cc3)c(F)c2)C(=O)O1 (stereo not given)"
  MIC (µM): 3.13
- Molecule: "CC(=O)NC[C@H]1CN(c2ccc(-c3cccc(COC(=O)c4ccc(B(O)O)cc4)c3)c(F)c2)C(=O)O1"
  MIC (µM): 0.78
- Molecule: "CC(=O)NCC1CN(c2ccc(-c3ccc(COC(=O)c4ccccc4)cc3)c(F)c2)C(=O)O1 (stereo not given)"
  MIC (µM): 3.13

Fill in the blank: the reported MIC of `O=C(O)c1cn(C2CC2)c2cc(N3CCNCC3)c(F)cc2c1=O` is ____.
1.5

Data origin: ChEMBL document CHEMBL4818993
